Each item that follows carries a reported growth inhibition.
test: NCI Yeast Anticancer Drug Screen. Data for the sgs1 mgt1 strain (AID 161);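 note: 0% = growth of cultures given vehicle only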; conditions: S. cerevisiae sgs1 mgt1 strain, at 50.0 µM, stronger effect = higher value
The panel holds about 79,000 compounds, 15% with a hit somewhere; the sample as a whole holds those more often. The source made the active and inactive calls. Cut-off read from the data, not from the text of the source: active = growth inhibition above about 70%; inactive = the rest.

- Item smiles: "CCCCNC(=O)NC/C(Br)=C/Br"
  growth inhibition: "1.4% (inactive)"

So, O=C1c2ccccc2-c2cc(F)ccc21 ? Its growth inhibition was -7.4% (inactive)

So, O=C(N/N=C/c1c(O)ccc2ccccc12)c1ccccc1 ? Its growth inhibition was 42.1% (inactive)

So, NC(=O)N(CCO)/N=C/c1ccc([N+](=O)[O-])o1 ? Its growth inhibition was 54.8% (inactive)

So, COc1cccc(N2C(=O)/C(=C/c3ccc(N(CCC#N)CCC#N)cc3)N=C2c2cc([N+](=O)[O-])ccc2Cl)c1 ? Its growth inhibition was 40.8% (inactive)

So, COc1ccc(NC(=O)Oc2ccc(OC)cc2)cc1 ? Its growth inhibition was 0.75% (inactive)

====

test: NCI Yeast Anticancer Drug Screen. Data for the sgs1 mgt1 strain (AID 161);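 note: 0% = growth of cultures given vehicle only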; conditions: S. cerevisiae sgs1 mgt1 strain, at 50.0 µM, stronger effect = higher value
Compounds without any hit were thinned out: in the full panel of roughly 79,000, 15% have a hit. Where a SMILES comes first, the peptide text is derived from it. [ ]: non-standard residue; d: D form. ΔPro = O=C(O)[CH]1C=CCN1
Assay readout: growth inhibition (%)
The response must be a number in % with no trailing unit.

- Compound: "N#C/C(=C/c1cccc2ccccc12)C(N)=O"
  Unit of measurement: "%"
  growth inhibition: 28.4

So, CN(C)CCCN1N=Nc2cccc3cccc1c23 ? Its growth inhibition was -14.3

So, O=C(O)C1C=CCN1C(=O)C1C=CCN1C(=O)C1C=CCN1 (centres undefined) (H-[ΔPro]-[ΔPro]-[ΔPro]-OH; configuration not given here) ? Its growth inhibition was -25.5

So, CN1OC(CO)CC12C1CC3CC(C1)CC2C3 (centres undefined) ? Its growth inhibition was -53.5

So, Cc1ccc(S(=O)(=O)OCCN2C(=O)CCC2=O)cc1 ? Its growth inhibition was 4.65

====

assay: NCI Yeast Anticancer Drug Screen. Data for the sgs1 mgt1 strain (AID 161);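 note: 0% = growth of cultures given vehicle only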; conditions: S. cerevisiae sgs1 mgt1 strain, at 50.0 µM, stronger effect = higher value
Compounds without any hit were thinned out: in the full panel of roughly 79,000, 15% have a hit.
Each item that follows carries a reported growth inhibition.
The response must be a number in % with no trailing unit.

Some solved cases for reference:
- Molecule: "Cc1[nH]c(=O)nc(N/N=C/c2ccc(O)cc2)c1C(=O)Nc1ccc(Cl)cc1"
  Assay readout: "growth inhibition"
  Measured number: -20.6
- Molecule: "O=C(Nc1ccccc1)SC1CCCCC1"
  Assay readout: "growth inhibition"
  Measured number: -8.7
- Molecule: "COCC(=O)C(C(C)=O)C(c1ccc2c(c1)OCO2)C(C(C)=O)C(=O)COC (stereo unspecified)"
  Assay readout: "growth inhibition"
  Measured number: -18.9
- Molecule: "COc1cc2c(cc1OC)C1(c3ccccc3)ON=C(c3ccccc3)N1CS2 (stereo unspecified)"
  Assay readout: "growth inhibition"
  Measured number: 8.95
- Molecule: "C=CC[Si](CC=C)(CC=C)OCC"
  Assay readout: "growth inhibition"
  Measured number: 4.05

So, CCOC(=O)C#Cc1ccc(C#CC(=O)OCC)cc1 ? Its growth inhibition was 6.45

So, CC(C)c1ccccc1OC(=O)c1cccc(Br)c1 ? Its growth inhibition was 0.35

So, CN(C)C(=O)Nc1cccc2c(NC(=O)N(C)C)cccc12 ? Its growth inhibition was 10.7

So, CC(C)C1=CC2=C(C(=O)C1=O)C13CCCC(C)(C)C1CC2OC3=O (stereo unspecified) ? Its growth inhibition was 23.6

So, Cc1cccc(C)c1OC(=O)/C=C/c1ccccc1 ? Its growth inhibition was 33

So, COc1ccc(C(=O)NC(=S)Nc2cc(C(F)(F)F)ccc2Cl)cc1 ? Its growth inhibition was -11.2

So, C=CCOC(=O)/C=C\C(=O)OCC=C ? Its growth inhibition was 6.8

So, O=c1[nH]c(=O)n(C2OC(CO)C(O)C2O)cc1OCCCc1ccccc1 (stereo unspecified) ? Its growth inhibition was 16.4

So, COc1ccc(/C=N/NC(=O)NNC(=O)c2cc([N+](=O)[O-])cc([N+](=O)[O-])c2)cc1OC ? Its growth inhibition was 36.7

So, CCCCN(CCCC)CC(O)C=O (stereo unspecified) ? Its growth inhibition was -0.5

====

Each item that follows carries a reported growth inhibition.
assay: NCI Yeast Anticancer Drug Screen. Data for the mlh1 rad18 strain (AID 175); conditions: S. cerevisiae mlh1 rad18 strain growth inhibition; at 50.0 µM; stronger effect = higher value
This is part of a sample that, as a whole, favours compounds with a hit. Of some 79,000 tested, about 15% had one in any assay.
The response must be a number in % with no trailing unit.

- Compound: "Cn1c(=O)c2c(nc(Cc3ccccc3)n2CC(=O)O)n(C)c1=O"
  Measured number: -18.9
- Compound: "COC(=O)CC1C=CC(OC)[C@@]2(C)C(=O)C=C(C)C(=O)[C@@H]12 (stereo partly specified)"
  Measured number: 3.15
- Compound: "c1ccc(-n2nnnc2-c2nnnn2-c2ccccc2)cc1"
  Measured number: -11
- Compound: "Cc1ccc(Sc2ccc3ccccc3c2)nc1"
  Measured number: -16.9
- Compound: "CSc1nnc(CCC(=O)Nc2ccc(Cl)cc2Cl)o1"
  Measured number: -10.2
- Compound: "CC(O)CC1CC(=O)CCC1=O (stereo unspecified)"
  Measured number: 8.3

So, CCCCCCCCCCCCCCCCCCNC(=S)/N=C\C(C(=O)Nc1ccccc1C)=C(/C)O ? Its growth inhibition was -5.65

So, O=S(=O)(OI(O)CC(F)(F)F)C(F)(F)F ? Its growth inhibition was 39.5

So, C=Cc1c(C)c(C)c(C=C)c(C)c1C ? Its growth inhibition was -17.3

So, CSc1nc(=O)cc(N)n1C ? Its growth inhibition was 7.9

So, CCCC(O)C(=O)C(CCC)N(CC)CC (stereo unspecified) ? Its growth inhibition was -4.9

So, CCOC(=O)/C=C/c1ccc(OCC)cc1 ? Its growth inhibition was -21

So, CCOc1nc(-c2ccccc2)cc(-c2ccc(N3CCOCC3)cc2)c1C#N ? Its growth inhibition was 27.5

So, COc1ccc(-c2nc(N)nc3c2CN(CCC(=O)O)C3=O)cc1 ? Its growth inhibition was 3.9

So, NCCNc1nc(NCCN)nc(N(CCN)CCN)n1 ? Its growth inhibition was 4.05

So, Cc1ccc(NC(=O)C(C)S)cc1 (stereo unspecified) ? Its growth inhibition was 32.4

So, CC1CC(=O)NC(=O)C1 ? Its growth inhibition was -22.7

So, O=C(O)[C@@H]1[C@H](C(=O)O)[C@H](C(=O)O)C[C@@H]1C(=O)O ? Its growth inhibition was 20.1

====

assay: NCI Yeast Anticancer Drug Screen. Data for the sgs1 mgt1 strain (AID 161);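 note: 0% = growth of cultures given vehicle only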; conditions: S. cerevisiae sgs1 mgt1 strain, at 50.0 µM
This is part of a sample that, as a whole, favours compounds with a hit. Of some 79,000 tested, about 15% had one in any assay. Activity calls are given as the source filed them. Rule as the data show it: active = growth inhibition above about 70%; inactive = the rest.
// classify into Y for active, N for inactive

Some solved entries appear below for comparison.
- Molecule: "Brc1cccc2c(SCCCCCCSc3c4ccccc4nc4c(Br)cccc34)c3ccccc3nc12"
  Class assignment: "N"
- Molecule: "CC(C)(C)[C@@H]1NC(=O)CN1C(=O)OCc1ccccc1"
  Class assignment: "N"
- Molecule: "CCCC(O)c1ccccc1C (stereo not given)"
  Class assignment: "N"
- Molecule: "O=C(NNc1ccccc1)c1ccc(Cl)cc1Cl"
  Class assignment: "N"
- Molecule: "COc1cc(NS(=O)(=O)c2ccccc2)ccc1C"
  Class assignment: "N"

Hi, do you know how N=C(N)SCCSC(=N)N came out in this test?
N

Hi, do you know how CCN(CC)CCC(O)(c1cccc(Cl)c1)C1CCCCC1 (stereo not given) came out in this test?
N

Hi, do you know how O=C(O)C(=O)C(c1ccccc1)c1ccccc1 came out in this test?
N

Hi, do you know how CC(=O)Nc1ccc(C(C#N)C(C#N)c2ccccc2)cc1 (stereo not given) came out in this test?
N

Hi, do you know how CCCC1OCC=CCO1 came out in this test?
N

Hi, do you know how C[N+](C)(C)Cc1cc2ccccc2c2ccccc12 came out in this test?
N

Hi, do you know how CC(=O)Nc1ccc2c(c1)C(P(=O)(OC(C)C)OC(C)C)c1ccccc1-2 (stereo not given) came out in this test?
N

Hi, do you know how CCOC(=Nc1cccc2ccccc12)Nc1cccc2ccccc12 came out in this test?
N

Hi, do you know how CC1(Br)CP(=O)(c2ccccc2)CC1Br (stereo not given) came out in this test?
N

Hi, do you know how COc1cc([N+](=O)[O-])c2[nH]c(=O)ccc2c1 came out in this test?
N

Hi, do you know how O=c1[nH]c2ccccc2nc1/C=C\NC(=S)Nc1cc(Cl)ccc1Cl came out in this test?
N

Hi, do you know how OCC(O)CNc1ncnc2ccccc12 (stereo not given) came out in this test?
N

Hi, do you know how COc1ccc2c3c(ccc2c1)C1CC(=O)CC1CC3 (stereo not given) came out in this test?
N

Hi, do you know how CN1CCC(CO)CC1 came out in this test?
N

Hi, do you know how Cc1ccc2oc(=O)cc(CC(=O)O)c2c1 came out in this test?
N
